Assay: Stability testing of the preferred embodiment tablet under accelerated storage conditions (ingredient content as % of claim)
Assay type: physicochemical
Conditions: 26 wk; 40 +/- 2 deg C and 75 +/- 5% RH; 150 cc white HDPE bottle
attribute_measured: Result as % of claim at indicated weeks

[ask] Entry under review: Cc1cc2nc3c(=O)[nH]c(=O)nc-3n(C[C@H](O)[C@H](O)[C@H](O)CO)c2cc1C [Vitamin B2, Riboflavin] . Reported Result as % of claim at indicated weeks?
[reply] 123 % of claim

[ask] Entry under review: [Se] [Selenium] . Reported Result as % of claim at indicated weeks?
[reply] 126 % of claim

[ask] Entry under review: [Zn] [Zinc] . Reported Result as % of claim at indicated weeks?
[reply] 112 % of claim

[ask] Entry under review: [Cu] [Copper] . Reported Result as % of claim at indicated weeks?
[reply] 109 % of claim

[ask] Entry under review: [Cr] [Chromium] . Reported Result as % of claim at indicated weeks?
[reply] 121 % of claim

[ask] Entry under review: [Mn+2] [Manganese] . Reported Result as % of claim at indicated weeks?
[reply] 113 % of claim

====

Test: Stability testing of the preferred embodiment tablet under accelerated storage conditions (ingredient content as % of claim)
Format: physicochemical
Conditions: 4 wk; 40 +/- 2 deg C and 75 +/- 5% RH; 150 cc white HDPE bottle
attribute_measured: Result as % of claim at indicated weeks

Some compounds with known Result as % of claim at indicated weeks results, for comparison:
# compound, result
rows = [
    ("O=C1O[C@H]([C@@H](O)CO)C(O)=C1O [Vitamin C]", "106 % of claim"),
    ("Cc1ncc(CO)c(CO)c1O.Cl [Vitamin B6]", "109 % of claim"),
    ("CC1=C(/C=C/C(C)=C/C=C/C(C)=C/C=C/C=C(C)/C=C/C=C(C)/C=C/C2=C(C)CCCC2(C)C)C(C)(C)CCC1 [Beta Carotene]", "139 % of claim"),
]

As a next step, examine the compound that follows.
[ask] Entry under review: Nc1nc2ncc(CNc3ccc(C(=O)N[C@@H](CCC(=O)O)C(=O)O)cc3)nc2c(=O)[nH]1 [Folic Acid] . Reported Result as % of claim at indicated weeks?
[reply] 132 % of claim
